Measured IC50 accompanies every entry in the list below.
- Assay System: UniProt Q15910
- Sequence (Q15910 whole entry): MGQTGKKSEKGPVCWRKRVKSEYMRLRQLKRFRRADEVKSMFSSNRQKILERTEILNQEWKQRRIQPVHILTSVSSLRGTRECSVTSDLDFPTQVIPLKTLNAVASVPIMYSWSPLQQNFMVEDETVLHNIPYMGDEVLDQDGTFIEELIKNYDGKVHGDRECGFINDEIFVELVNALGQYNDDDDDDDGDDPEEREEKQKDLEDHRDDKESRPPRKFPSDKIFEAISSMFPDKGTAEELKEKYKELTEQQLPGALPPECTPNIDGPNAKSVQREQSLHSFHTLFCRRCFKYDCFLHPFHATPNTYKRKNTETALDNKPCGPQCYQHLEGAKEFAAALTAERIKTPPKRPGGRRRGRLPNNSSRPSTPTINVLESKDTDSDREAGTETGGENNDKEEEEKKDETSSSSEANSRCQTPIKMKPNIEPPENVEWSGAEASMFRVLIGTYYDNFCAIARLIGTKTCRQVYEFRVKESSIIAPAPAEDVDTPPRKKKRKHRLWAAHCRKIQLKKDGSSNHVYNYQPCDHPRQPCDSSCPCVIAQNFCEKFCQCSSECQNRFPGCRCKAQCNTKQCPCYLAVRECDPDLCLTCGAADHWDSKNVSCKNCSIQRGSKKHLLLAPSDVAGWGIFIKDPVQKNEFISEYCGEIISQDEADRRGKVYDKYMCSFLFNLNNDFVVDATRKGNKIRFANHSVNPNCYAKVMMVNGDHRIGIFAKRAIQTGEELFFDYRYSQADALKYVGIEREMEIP
- Sequence (O75530 whole entry partner): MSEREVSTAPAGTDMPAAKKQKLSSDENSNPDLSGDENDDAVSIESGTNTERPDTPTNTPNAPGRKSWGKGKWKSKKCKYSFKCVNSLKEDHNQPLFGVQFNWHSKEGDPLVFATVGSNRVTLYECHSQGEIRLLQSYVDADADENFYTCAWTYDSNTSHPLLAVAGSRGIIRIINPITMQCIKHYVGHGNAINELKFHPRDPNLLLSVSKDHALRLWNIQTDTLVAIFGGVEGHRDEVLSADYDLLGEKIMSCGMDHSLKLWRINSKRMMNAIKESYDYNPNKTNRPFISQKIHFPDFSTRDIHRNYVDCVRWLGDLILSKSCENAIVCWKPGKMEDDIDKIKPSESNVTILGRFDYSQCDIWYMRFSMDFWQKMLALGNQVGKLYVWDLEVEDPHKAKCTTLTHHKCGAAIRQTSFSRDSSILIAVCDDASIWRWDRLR
- Sequence (Q15022 whole entry partner): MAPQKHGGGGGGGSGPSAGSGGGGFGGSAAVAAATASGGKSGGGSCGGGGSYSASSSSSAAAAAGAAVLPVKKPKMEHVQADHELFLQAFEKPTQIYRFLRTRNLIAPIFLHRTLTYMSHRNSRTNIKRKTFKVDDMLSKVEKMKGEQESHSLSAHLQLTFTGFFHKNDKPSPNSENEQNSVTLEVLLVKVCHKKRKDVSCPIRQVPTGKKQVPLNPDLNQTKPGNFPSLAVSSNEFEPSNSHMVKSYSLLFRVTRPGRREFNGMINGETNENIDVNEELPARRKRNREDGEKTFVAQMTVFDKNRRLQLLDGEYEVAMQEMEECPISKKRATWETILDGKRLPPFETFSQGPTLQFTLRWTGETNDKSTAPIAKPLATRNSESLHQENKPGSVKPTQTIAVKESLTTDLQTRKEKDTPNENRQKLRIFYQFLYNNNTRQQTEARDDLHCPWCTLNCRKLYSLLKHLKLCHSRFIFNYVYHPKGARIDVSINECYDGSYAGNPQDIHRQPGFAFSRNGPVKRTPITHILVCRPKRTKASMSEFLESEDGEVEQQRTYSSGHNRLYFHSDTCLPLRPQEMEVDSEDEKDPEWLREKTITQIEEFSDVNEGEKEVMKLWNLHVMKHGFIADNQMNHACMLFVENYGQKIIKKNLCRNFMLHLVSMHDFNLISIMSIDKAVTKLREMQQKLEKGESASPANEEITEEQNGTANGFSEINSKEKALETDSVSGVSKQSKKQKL
Assay Endpoint: IC50 (nM)

In [3]: df
Out[3]:
                                   compound    assay_system  assay_endpoint  endpoint_value
0  Cc1cc(C)c(CNC(=O)c2cc(Br)c3c(c2C)OC(C)([C@H]2CC[C@H](CN(C)C)CC2)O3)c(=O)[nH]1 (relative stereo)  UniProt Q15910            IC50              12
1  Cc1cc(C)c(CNC(=O)c2cc(Cl)c3c(c2Cl)OC(C)([C@@H]2CC[C@@H](N(C)C)CO2)O3)c(=O)[nH]1 (stereo partly drawn)  UniProt Q15910            IC50              27
2  Cc1cc(C)c(CNC(=O)c2cc(C3=CCOCC3)c3c(c2C)OC(C)([C@H]2CC[C@H](N(C)C)CC2)O3)c(=O)[nH]1 (relative stereo)  UniProt Q15910            IC50             6.6
3  COCCN1CCC([C@@]2(C)Oc3c(Br)cc(C(=O)NCc4c(C)cc(C)[nH]c4=O)c(C)c3O2)CC1  UniProt Q15910            IC50              11
4  COc1cc(C)[nH]c(=O)c1CNC(=O)c1cc(Br)c2c(c1C)OC(C)([C@H]1CC[C@H](N(C)C)CC1)O2 (relative stereo)  UniProt Q15910            IC50              12
5  Cc1cc(C)c(CNC(=O)c2cc(Br)c3c(c2C)O[C@@](C)(CN2CCOCC2)O3)c(=O)[nH]1  UniProt Q15910            IC50             9.6
